Source listed as PubChem BioAssay (NCI).

List of growth values.
# Tested on: SF-539 CNS
# protocol_notes: NCI-60 one-dose screen, 48 h (100 = growth as untreated, 0 = no growth, -100 = all killed)
# applied_conditions: 10 µM unless noted
About 83,000 compounds went through this panel and 20% of them were active in at least one assay; those are over-represented in the sample as a whole.
reported_endpoint: growth (%)

[[record]]
molecule = "N#CCCOc1ccccc1"
reported_endpoint = "growth"
reported_result = 96.2

[[record]]
molecule = "Cc1ccc(-c2noc(C)n2)cc1"
reported_endpoint = "growth"
reported_result = 98.7

[[record]]
molecule = "Cc1cccc(/C=C\\C(=O)c2ccc(Cl)cc2)c1"
reported_endpoint = "growth"
reported_result = 101

[[record]]
molecule = "Nc1ccc2ccc(N)cc2c1"
reported_endpoint = "growth"
reported_result = 107

[[record]]
molecule = "COc1ccc(NC(=S)Nc2ccccn2)cc1"
reported_endpoint = "growth"
reported_result = 109

[[record]]
molecule = "Clc1nc(Oc2ccccc2)nc(-c2cn(-c3ccccc3)c3ccccc23)n1"
reported_endpoint = "growth"
reported_result = 91.1

[[record]]
molecule = "O=[N+]([O-])c1ccc(-n2[nH]nnc2=S)cc1"
reported_endpoint = "growth"
reported_result = 104

[[record]]
molecule = "NCCSC(C[N+](=O)[O-])c1ccccc1Cl (centres undefined)"
reported_endpoint = "growth"
reported_result = 94.6

[[record]]
molecule = "C#CCN(C)Cc1ccccc1"
reported_endpoint = "growth"
reported_result = 97.8

[[record]]
molecule = "CC1=CCC2CC1C2(C)C (centres undefined)"
reported_endpoint = "growth"
reported_result = 102

[[record]]
molecule = "N#C/C(=C/c1c(O)ccc2ccccc12)C(N)=O"
reported_endpoint = "growth"
reported_result = 102

[[record]]
molecule = "CCOC(=O)C(CNc1ccccc1)C(=O)OCC"
reported_endpoint = "growth"
reported_result = 101

[[record]]
molecule = "O=C(O)c1cc(C(=O)O)cc([N+](=O)[O-])c1"
reported_endpoint = "growth"
reported_result = 100

[[record]]
molecule = "CCC(=O)C(CC)c1cccc(OC)c1 (centres undefined)"
reported_endpoint = "growth"
reported_result = 115

[[record]]
molecule = "C[N+](C)(C)CN1C(=O)c2ccccc2C1=O"
reported_endpoint = "growth"
reported_result = 99.5

[[record]]
molecule = "CNC(=O)c1cccnc1"
reported_endpoint = "growth"
reported_result = 100

[[record]]
molecule = "Nc1ccccc1SC1CC(=O)N(c2cccc3ccccc23)C1=O (centres undefined)"
reported_endpoint = "growth"
reported_result = 95.6

[[record]]
molecule = "O=[N+]([O-])c1ccc2nc3c4ccccc4c4ccccc4c3nc2c1"
reported_endpoint = "growth"
reported_result = 91

[[record]]
molecule = "CN(C)CCC(=O)c1ccc(Cl)cc1"
reported_endpoint = "growth"
reported_result = 106

[[record]]
molecule = "CC(O)Cn1cnc2c1c(=O)n(C)c(=O)n2C (centres undefined)"
reported_endpoint = "growth"
reported_result = 93.7

[[record]]
molecule = "CN(Cc1ccccc1)Cc1ccccc1"
reported_endpoint = "growth"
reported_result = 99.2

[[record]]
molecule = "CCCCCCCCCCCCOc1ccccc1C=O"
reported_endpoint = "growth"
reported_result = 102

[[record]]
molecule = "CC1=C(/C=C/C(C)=C/C=C/C(C)=C/C(=O)Nc2ccc(O)cc2)C(C)(C)CCC1"
reported_endpoint = "growth"
reported_result = -32.7

[[record]]
molecule = "NC(=S)NS(=O)(=O)c1ccc(N)cc1"
reported_endpoint = "growth"
reported_result = 98.7

[[record]]
molecule = "COc1ccc2ccccc2c1/C=N/N1CCCCC1"
reported_endpoint = "growth"
reported_result = 89.5

[[record]]
molecule = "OCc1ccccn1"
reported_endpoint = "growth"
reported_result = 104

[[record]]
molecule = "NC(=O)c1ccccc1OCC(O)CO (centres undefined)"
reported_endpoint = "growth"
reported_result = 90.2

[[record]]
molecule = "CCN(CC)C(=O)c1cccnc1"
reported_endpoint = "growth"
reported_result = 99.8

[[record]]
molecule = "c1ccc(N(c2ccccc2)c2ccccc2)cc1"
reported_endpoint = "growth"
reported_result = 104

